Assayed target: T1, HLA-B*44:05 (human)
T1 construct: also called peptide-receptive MHC class I molecule
Test: UV peptide exchange, anti-b2m ELISA
Protocol: Only peptide candidates that can effectively bind and stabilize the peptide-receptive MHC molecules prevent dissociation of the MHC complexes. […] 96 well MAXISorp plates (NUNC) were coated over night with 2 ug/ml streptavidin in PBS at room temperature, washed 4× and blocked for 1 h at 37° C. in 2% BSA containing blocking buffer. […] Absorption was measured at 450 nm.
Measure: peptide exchange yield

1) TELQIPSF: 20 to 50%

Prompt: Which value of peptide exchange yield has been reported for KESDAGKYY in the records?
Response: 50 to 75%

Prompt: Which value of peptide exchange yield has been reported for QEVAQVASA in the records?
Response: 20 to 50%

Prompt: Which value of peptide exchange yield has been reported for TEENGFWYL in the records?
Response: > 75%
